These entries and their values trace back to patent US20210032365A1.

Entries and their koff values follow.
Target: T1, human C1s (human, UniProt P09871 16-688)
T1 construct: also called hC1s; serum-derived human C1s (CompTech)
T1 sequence: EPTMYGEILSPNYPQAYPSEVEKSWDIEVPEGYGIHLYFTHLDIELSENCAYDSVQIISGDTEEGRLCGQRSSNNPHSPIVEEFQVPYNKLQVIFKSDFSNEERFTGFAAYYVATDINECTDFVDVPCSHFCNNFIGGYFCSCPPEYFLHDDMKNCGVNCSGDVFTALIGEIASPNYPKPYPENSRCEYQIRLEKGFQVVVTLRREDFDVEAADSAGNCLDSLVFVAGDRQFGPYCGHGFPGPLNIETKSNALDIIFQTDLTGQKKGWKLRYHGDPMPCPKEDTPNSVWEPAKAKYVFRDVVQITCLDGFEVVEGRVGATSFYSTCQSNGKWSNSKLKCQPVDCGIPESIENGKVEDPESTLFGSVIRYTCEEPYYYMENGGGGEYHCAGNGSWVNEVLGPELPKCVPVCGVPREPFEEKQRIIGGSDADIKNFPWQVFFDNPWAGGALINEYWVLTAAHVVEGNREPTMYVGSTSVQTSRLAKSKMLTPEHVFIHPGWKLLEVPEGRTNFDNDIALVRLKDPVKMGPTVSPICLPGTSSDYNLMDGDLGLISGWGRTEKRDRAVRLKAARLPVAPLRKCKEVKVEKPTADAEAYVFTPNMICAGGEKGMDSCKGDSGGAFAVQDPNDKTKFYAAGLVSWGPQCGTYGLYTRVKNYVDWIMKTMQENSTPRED
Assay: SPR, Ab captured; pH 7.4, 1.2 mM Ca
Please don't drop the unit; write it after the number.

Example results:
BINDER	koff
C1_IPN92H0026-SG4GK/IPN93L0028-SK1 (antibody, human IgG4 S228P, kappa, name in Kabat numbering, V domains shown, also called IPN92H0026/IPN93L0028) VH: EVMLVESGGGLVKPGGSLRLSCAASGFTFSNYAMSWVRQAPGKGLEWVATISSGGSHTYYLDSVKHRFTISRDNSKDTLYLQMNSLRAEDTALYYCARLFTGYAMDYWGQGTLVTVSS VL: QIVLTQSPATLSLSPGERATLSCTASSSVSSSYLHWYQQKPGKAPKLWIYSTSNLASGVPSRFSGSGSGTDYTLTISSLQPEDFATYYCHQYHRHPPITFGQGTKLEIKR	0.00255 s⁻¹
C1_IPN92H0033-SG4GK/IPN93L0031-SK1 (antibody, human IgG4 S228P, kappa, name in Kabat numbering, V domains shown, also called IPN92H0033/IPN93L0031) VH: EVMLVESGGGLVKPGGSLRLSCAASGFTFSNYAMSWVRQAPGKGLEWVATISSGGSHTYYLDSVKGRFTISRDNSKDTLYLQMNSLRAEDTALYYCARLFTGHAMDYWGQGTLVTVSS VL: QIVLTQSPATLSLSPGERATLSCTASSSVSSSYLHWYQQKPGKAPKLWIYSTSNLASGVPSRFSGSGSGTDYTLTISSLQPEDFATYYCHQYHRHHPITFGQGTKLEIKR	0.00187 s⁻¹

Please report the recorded koff for C1_IPN92H0026-SG4GK/IPN93L0030-SK1 (antibody, human IgG4 S228P, kappa, name in Kabat numbering, V domains shown, also called IPN92H0026/IPN93L0030) VH: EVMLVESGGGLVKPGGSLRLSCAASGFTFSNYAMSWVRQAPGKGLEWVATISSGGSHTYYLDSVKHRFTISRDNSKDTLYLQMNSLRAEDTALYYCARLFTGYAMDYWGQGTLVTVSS VL: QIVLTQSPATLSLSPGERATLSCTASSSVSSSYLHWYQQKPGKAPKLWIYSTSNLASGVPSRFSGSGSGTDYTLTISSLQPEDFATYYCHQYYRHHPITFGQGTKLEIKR .
0.0103 s⁻¹
